// provenance: the supplement of paper PMC10065799

# experimentalTarget: Jak2 (UniProt O60674)
# Sequence (O60674 whole entry, looked up): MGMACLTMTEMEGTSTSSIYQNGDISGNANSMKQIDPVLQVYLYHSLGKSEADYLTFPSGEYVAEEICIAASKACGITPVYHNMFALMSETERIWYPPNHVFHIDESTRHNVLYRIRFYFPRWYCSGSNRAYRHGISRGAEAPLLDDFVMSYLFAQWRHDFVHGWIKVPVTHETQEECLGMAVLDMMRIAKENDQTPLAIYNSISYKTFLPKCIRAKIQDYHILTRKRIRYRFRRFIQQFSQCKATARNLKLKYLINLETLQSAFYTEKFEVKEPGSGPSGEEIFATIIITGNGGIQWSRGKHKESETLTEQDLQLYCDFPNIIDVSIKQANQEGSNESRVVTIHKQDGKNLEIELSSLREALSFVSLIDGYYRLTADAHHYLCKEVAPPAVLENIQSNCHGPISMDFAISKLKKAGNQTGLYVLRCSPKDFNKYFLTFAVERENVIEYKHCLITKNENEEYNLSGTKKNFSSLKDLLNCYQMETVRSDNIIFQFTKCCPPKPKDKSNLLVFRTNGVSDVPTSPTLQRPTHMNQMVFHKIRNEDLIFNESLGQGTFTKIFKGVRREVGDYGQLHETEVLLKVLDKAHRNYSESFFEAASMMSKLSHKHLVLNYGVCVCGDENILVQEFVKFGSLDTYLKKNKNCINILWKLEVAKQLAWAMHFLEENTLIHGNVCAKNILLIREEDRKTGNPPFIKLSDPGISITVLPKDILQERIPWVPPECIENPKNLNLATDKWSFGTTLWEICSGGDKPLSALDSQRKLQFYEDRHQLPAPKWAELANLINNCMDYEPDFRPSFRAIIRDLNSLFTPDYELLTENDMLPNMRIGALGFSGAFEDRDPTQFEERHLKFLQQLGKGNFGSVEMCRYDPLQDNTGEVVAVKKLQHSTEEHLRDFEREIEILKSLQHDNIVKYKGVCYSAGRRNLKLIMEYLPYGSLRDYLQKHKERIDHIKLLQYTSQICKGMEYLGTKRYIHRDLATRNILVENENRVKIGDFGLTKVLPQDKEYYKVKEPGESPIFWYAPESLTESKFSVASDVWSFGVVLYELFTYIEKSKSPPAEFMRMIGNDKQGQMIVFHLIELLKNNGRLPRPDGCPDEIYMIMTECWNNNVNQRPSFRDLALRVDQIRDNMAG
# procedureSummary: phosphorylation enrichment, bacterial display (enrichment ratio); higher = better substrate or ligand; peptides without Tyr show the background
propertyMeasured: phosphorylation enrichment

Illustrative cases are given below, each with its answer.
monomerSequence: HAEERYGKELV [PSTPIP1_Y53_Q48H]
experimentalTarget: Jak2 (UniProt O60674)
phosphorylation enrichment: 1.06

monomerSequence: SLQFEYVHFGG [CDC14A_Y591_S589F_YF]
experimentalTarget: Jak2 (UniProt O60674)
phosphorylation enrichment: 1.12

monomerSequence: CVVVPYEPPEV [TP53_Y220_S215C]
experimentalTarget: Jak2 (UniProt O60674)
phosphorylation enrichment: 1.38

monomerSequence: GGFTRYCDGKK [PROS1_Y266_C265R_YF]
experimentalTarget: Jak2 (UniProt O60674)
phosphorylation enrichment: 0.653

monomerSequence: ISRASYFRKGG [ALK_Y1282_Y1278S_YF]
experimentalTarget: Jak2 (UniProt O60674)
phosphorylation enrichment: 0.59

monomerSequence: PIPAAYNKYDQ [CDC73_Y290_R292K]
experimentalTarget: Jak2 (UniProt O60674)
phosphorylation enrichment: 0.754

// next entry
QUERY: State the recorded phosphorylation enrichment for this entry: ELAKYYKLHHI [AK7_Y391_N389K]
RESULT: 0.987

====

# experimentalTarget: Fyn (UniProt P06241)
# Sequence (P06241 whole entry, looked up): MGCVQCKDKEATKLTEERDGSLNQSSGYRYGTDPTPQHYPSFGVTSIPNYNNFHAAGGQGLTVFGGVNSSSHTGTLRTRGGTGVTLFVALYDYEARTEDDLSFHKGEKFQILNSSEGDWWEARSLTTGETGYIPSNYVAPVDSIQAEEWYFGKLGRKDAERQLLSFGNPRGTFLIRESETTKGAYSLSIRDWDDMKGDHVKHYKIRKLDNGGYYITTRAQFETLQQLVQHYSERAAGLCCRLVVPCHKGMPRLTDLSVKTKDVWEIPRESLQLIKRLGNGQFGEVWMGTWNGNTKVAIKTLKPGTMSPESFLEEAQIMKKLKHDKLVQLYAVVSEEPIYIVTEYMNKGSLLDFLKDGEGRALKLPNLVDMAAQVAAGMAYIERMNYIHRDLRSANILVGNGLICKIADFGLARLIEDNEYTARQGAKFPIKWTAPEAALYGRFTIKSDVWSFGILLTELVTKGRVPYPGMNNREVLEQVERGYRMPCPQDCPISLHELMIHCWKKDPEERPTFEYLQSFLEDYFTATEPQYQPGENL
# procedureSummary: phosphorylation enrichment, bacterial display (enrichment ratio); higher = better substrate or ligand; peptides without Tyr show the background
Measured phosphorylation enrichment, listed per entry for reference.

monomerSequence: RKETFYILSCR [GUCY2C_Y681_T682I]
phosphorylation enrichment: 0.373
--
monomerSequence: IALNSYHSRNC [IFNGR1_Y397]
phosphorylation enrichment: 0.417
--
monomerSequence: ETLLYYGCRRS [POR_Y564]
phosphorylation enrichment: 1.89
--
monomerSequence: KFVVVYFREID [IL17RB_Y447_YF]
phosphorylation enrichment: 0.436
--
monomerSequence: PVDVAYRHGFF [PLEC_Y2967_R2969H_YF]
phosphorylation enrichment: 0.324

QUERY: State the recorded phosphorylation enrichment for this entry: KPIETYFSKNY [PLP1_Y50_L46P]
RESULT: 0.448

QUERY: State the recorded phosphorylation enrichment for this entry: SPYMLYQYLKQ [RPAP3_Y567_D564Y]
RESULT: 4.34

====

# experimentalTarget: Hck (UniProt P08631)
# Sequence (P08631 whole entry, looked up): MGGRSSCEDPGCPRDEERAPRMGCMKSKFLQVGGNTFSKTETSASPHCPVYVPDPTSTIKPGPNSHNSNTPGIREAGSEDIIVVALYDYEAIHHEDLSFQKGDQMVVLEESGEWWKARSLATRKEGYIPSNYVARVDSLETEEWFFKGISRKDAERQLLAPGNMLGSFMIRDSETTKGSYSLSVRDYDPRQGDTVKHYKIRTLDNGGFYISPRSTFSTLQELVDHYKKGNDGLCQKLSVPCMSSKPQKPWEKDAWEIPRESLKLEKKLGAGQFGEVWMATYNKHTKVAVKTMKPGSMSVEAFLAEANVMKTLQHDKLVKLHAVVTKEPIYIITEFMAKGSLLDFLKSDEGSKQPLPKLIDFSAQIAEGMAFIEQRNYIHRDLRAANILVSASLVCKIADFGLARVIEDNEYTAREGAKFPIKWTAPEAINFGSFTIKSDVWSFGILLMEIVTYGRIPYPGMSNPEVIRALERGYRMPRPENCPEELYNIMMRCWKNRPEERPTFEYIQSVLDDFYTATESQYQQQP
# procedureSummary: phosphorylation enrichment, bacterial display (enrichment ratio); higher = better substrate or ligand; peptides without Tyr show the background
Measured phosphorylation enrichment, listed per entry for reference.
Reply with the value as a number alone.

Illustrative cases are given below, each with its answer.
monomerSequence: PGLRGYPGLSG [COL4A2_Y306]
experimentalTarget: Hck (UniProt P08631)
propertyMeasured: phosphorylation enrichment
assayResult: 0.505
--
monomerSequence: FTDGQYWIRGR [ACSF3_Y466_K462T]
experimentalTarget: Hck (UniProt P08631)
propertyMeasured: phosphorylation enrichment
assayResult: 1.03
--
monomerSequence: NQNIGYELGHR [KCNN3_Y268_K269E]
experimentalTarget: Hck (UniProt P08631)
propertyMeasured: phosphorylation enrichment
assayResult: 0.37
--
monomerSequence: HIAKGYRRDNP [HARS1_Y156_V155G]
experimentalTarget: Hck (UniProt P08631)
propertyMeasured: phosphorylation enrichment
assayResult: 0.572

QUERY: Give recorded phosphorylation enrichment with Hck (UniProt P08631) for the following sequence: CFVFFYSFLLK [PTEN_Y178_R173C_YF]
RESULT: 0.578

QUERY: Give recorded phosphorylation enrichment with Hck (UniProt P08631) for the following sequence: FSPPYYHRNCM [HGD_Y334_R330S]
RESULT: 0.515

QUERY: Give recorded phosphorylation enrichment with Hck (UniProt P08631) for the following sequence: LNEWHYGGLTG [PGAM2_Y92_R90W]
RESULT: 0.738

QUERY: Give recorded phosphorylation enrichment with Hck (UniProt P08631) for the following sequence: GKPENYRRLDI [VHL_Y175_V170G]
RESULT: 0.327

QUERY: Give recorded phosphorylation enrichment with Hck (UniProt P08631) for the following sequence: KLMTEYKKRKQ [ARFGEF3_Y2029]
RESULT: 0.459

QUERY: Give recorded phosphorylation enrichment with Hck (UniProt P08631) for the following sequence: HISGVYKLPPD [ANGPTL7_Y145_R140H]
RESULT: 0.718

QUERY: Give recorded phosphorylation enrichment with Hck (UniProt P08631) for the following sequence: RLRKYHLGKYL [KLB_Y906_Y906H]
RESULT: 0.253

QUERY: Give recorded phosphorylation enrichment with Hck (UniProt P08631) for the following sequence: PNLILYGDFRQ [MYH7_Y715_R712L]
RESULT: 2.87

QUERY: Give recorded phosphorylation enrichment with Hck (UniProt P08631) for the following sequence: FQGGTYSKACT [FGG_Y380_S384C_YF]
RESULT: 0.473

QUERY: Give recorded phosphorylation enrichment with Hck (UniProt P08631) for the following sequence: GVLKEYGEKVL [CPS1_Y529_V531E]
RESULT: 0.422

====

Measured phosphorylation enrichment, listed per entry for reference.
# System: Fer (mouse)
# procedureSummary: phosphorylation enrichment, bacterial display (enrichment ratio); higher = better substrate or ligand; peptides without Tyr show the background
Reply with the value as a number alone.

monomerSequence: VNFDFYTVNLG [GFPT1_Y367_D366Y_YF]
phosphorylation enrichment: 0.758
//
monomerSequence: ALHRPYGCDVE [ABL2_Y80]
phosphorylation enrichment: 0.538
//
monomerSequence: GITVTYTIPKK [UBA5_Y372_A371T]
phosphorylation enrichment: 0.497
//
monomerSequence: IGEVVYQRAVM [GRIN2A_Y502]
phosphorylation enrichment: 1.46
//
monomerSequence: QGIFGYHHFMQ [UFSP2_Y287_YF]
phosphorylation enrichment: 0.857
//
monomerSequence: ISSLPYMKMIF [SLC4A11_Y853_M848I]
phosphorylation enrichment: 1.11
//
monomerSequence: NHFKIYNLCAE [PTEN_Y68_YF]
phosphorylation enrichment: 0.535
//
monomerSequence: KRLYAYKMLMA [TMC2_Y209_Q205R]
phosphorylation enrichment: 0.42
//
monomerSequence: SIVEDYRPPFF [ACVRL1_Y421_G416S_YF]
phosphorylation enrichment: 0.485
//
monomerSequence: EGDGVYTLNNE [HP_Y125]
phosphorylation enrichment: 0.658

QUERY: State the recorded phosphorylation enrichment for this entry: YALAEYTEVKT [ALDH1A3_Y497]
RESULT: 1.31

QUERY: State the recorded phosphorylation enrichment for this entry: AVVEPYNSILT [TUBA1A_Y185]
RESULT: 0.377

QUERY: State the recorded phosphorylation enrichment for this entry: MFVKSYTIHFS [F5_Y2153_YF]
RESULT: 0.464

QUERY: State the recorded phosphorylation enrichment for this entry: RLRKYHLGKYL [KLB_Y906_Y906H]
RESULT: 0.426

====

# System: c-Src
# procedureSummary: phosphorylation enrichment, bacterial display (enrichment ratio); higher = better substrate or ligand; peptides without Tyr show the background
propertyMeasured: phosphorylation enrichment
Reply with the value as a number alone.

monomerSequence: YIRKDYEACKA [BBS4_Y48]
phosphorylation enrichment: 0.386

monomerSequence: ETLLYYGCRRS [POR_Y564]
phosphorylation enrichment: 3.48

QUERY: State the recorded phosphorylation enrichment for this entry: PPSLSYLSFEG [EXOSC3_Y143_A139P]
RESULT: 1.1

QUERY: State the recorded phosphorylation enrichment for this entry: TWQSMYGCDVG [HLA-B_Y123_L119W]
RESULT: 0.735

QUERY: State the recorded phosphorylation enrichment for this entry: ADDSYYTARSA [ZAP70_Y493]
RESULT: 0.7

QUERY: State the recorded phosphorylation enrichment for this entry: PESCFYKESWL [IQGAP2_Y630_L629F]
RESULT: 0.516

QUERY: State the recorded phosphorylation enrichment for this entry: VGGRIYIDDAL [PKLR_Y218_G222A]
RESULT: 0.419

====

# experimentalTarget: Grb2 SH2 (UniProt P62993)
# Sequence (P62993 whole entry, looked up): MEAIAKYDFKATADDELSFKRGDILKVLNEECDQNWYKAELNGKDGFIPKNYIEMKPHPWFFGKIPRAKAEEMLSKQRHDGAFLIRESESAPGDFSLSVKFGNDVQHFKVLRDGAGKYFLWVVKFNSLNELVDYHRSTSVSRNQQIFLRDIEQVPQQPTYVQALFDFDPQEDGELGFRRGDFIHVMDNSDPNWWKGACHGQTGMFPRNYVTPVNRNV
# procedureSummary: SH2 binding enrichment of the phosphorylated peptide, bacterial display (enrichment ratio); higher = better substrate or ligand; peptides without Tyr show the background
propertyMeasured: SH2 binding enrichment

monomerSequence: VQVAFYTVMMN [SPATA17_Y84_M86V_YF]
SH2 binding enrichment: 0.815

QUERY: State the recorded SH2 binding enrichment for this entry: QRHFVYFFSFL [PTEN_Y176_R173H_YF]
RESULT: 1.48

QUERY: State the recorded SH2 binding enrichment for this entry: PTKNDYWAMLA [WWOX_Y287]
RESULT: 1.07

QUERY: State the recorded SH2 binding enrichment for this entry: RHSGSYFVTSV [APC_Y2838_L2839F]
RESULT: 0.787
